Reference source for all entries: ChEMBL document CHEMBL6078626

# measuredOn: UniProtKB Q8TDU6
# testName: Agonist activity at human TGR5
# Assay type: functional
pEC50: −log10 of the molar value.
measure: pEC50

>  <smilesEntry>
COc1ccc(S(=O)(=O)N2CCN(S(=O)(=O)c3ccc(OC)c(OC)c3)CC2)cc1OC

>  <measure>
pEC50

>  <reportedValue>
5.89

$$$$

---

# measuredOn: G-protein coupled bile acid receptor 1 (Homo sapiens, UniProt Q8TDU6)
# Sequence (Q8TDU6 whole entry): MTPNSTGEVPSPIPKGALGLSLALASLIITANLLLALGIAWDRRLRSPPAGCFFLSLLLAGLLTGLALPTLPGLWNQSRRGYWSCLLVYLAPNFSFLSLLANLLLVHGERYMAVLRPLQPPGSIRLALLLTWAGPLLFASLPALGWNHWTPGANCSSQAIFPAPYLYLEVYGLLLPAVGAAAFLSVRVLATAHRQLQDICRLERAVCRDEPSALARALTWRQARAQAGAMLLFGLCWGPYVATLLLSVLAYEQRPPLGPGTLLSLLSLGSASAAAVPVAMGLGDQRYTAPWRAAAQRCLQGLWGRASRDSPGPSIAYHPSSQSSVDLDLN
# testName: Agonist activity at human TGR5 expressed in HEK293 cells
# Format: functional, cell-based
measure: EC50 (nM)

>  <compound>
Fc1cccc(F)c1-c1ccncc1CN1C(c2ccco2)=NOC1c1cc(C(F)(F)F)cc(C(F)(F)F)c1Cl (stereo unspecified)

>  <measure>
EC50

>  <reportedValue>
15

$$$$
